- Target: T79S PafA (Elizabethkingia meningoseptica, UniProt Q9KJX5, T79S)
- Sequence (Q9KJX5 26-546 T79S): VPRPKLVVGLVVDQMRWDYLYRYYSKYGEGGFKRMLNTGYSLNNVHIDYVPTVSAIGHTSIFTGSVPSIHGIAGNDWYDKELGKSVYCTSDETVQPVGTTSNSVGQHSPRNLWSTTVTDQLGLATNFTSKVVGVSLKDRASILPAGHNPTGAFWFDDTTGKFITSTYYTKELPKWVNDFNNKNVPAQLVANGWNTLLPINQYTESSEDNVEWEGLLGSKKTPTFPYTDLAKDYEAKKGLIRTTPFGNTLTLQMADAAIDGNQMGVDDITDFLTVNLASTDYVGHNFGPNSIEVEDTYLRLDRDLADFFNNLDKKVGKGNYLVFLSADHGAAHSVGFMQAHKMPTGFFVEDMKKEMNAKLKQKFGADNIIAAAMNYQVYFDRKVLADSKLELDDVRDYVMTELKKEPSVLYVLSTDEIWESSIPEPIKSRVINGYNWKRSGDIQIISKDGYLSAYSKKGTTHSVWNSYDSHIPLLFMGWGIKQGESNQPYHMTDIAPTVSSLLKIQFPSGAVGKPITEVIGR
- Assay: biochemical
- Condition Description: pH 8.0, subsaturating me-pNPP
Property: Ki (µM)

Compound: [O]=[W](=[O])([OH])[OH] [tungstate]
Property: Ki
Observed Measurement: 280
--
Compound: O=P(O)(O)O [Pi, inorganic phosphate]
Property: Ki
Observed Measurement: 9.6
--
Compound: [O]=[V]([OH])([OH])[OH] [vanadate]
Property: Ki
Observed Measurement: 90

====

- Target: R164A PafA (Elizabethkingia meningoseptica, UniProt Q9KJX5, R164A)
- Assay: biochemical
- Condition Description: pH 8.0, subsaturating me-pNPP

Compound: O=P(O)(O)O [Pi, inorganic phosphate]
Target: R164A PafA (Elizabethkingia meningoseptica, UniProt Q9KJX5, R164A)
Result Modifier: >
Ki (µM): 13000

Compound: [O]=[V]([OH])([OH])[OH] [vanadate]
Target: R164A PafA (Elizabethkingia meningoseptica, UniProt Q9KJX5, R164A)
Result Modifier: =
Ki (µM): 300

Compound: [O]=[W](=[O])([OH])[OH] [tungstate]
Target: R164A PafA (Elizabethkingia meningoseptica, UniProt Q9KJX5, R164A)
Result Modifier: =
Ki (µM): 1300
